# ASSAY NAME: Activation of procaspase-3 (unknown origin)
# Parameters: species or system Homo sapiens
PROPERTY: EC50 (µM)
Numbers only; they are read as µM.

Suppose we examine the compound O=C(Nc1cccc(-c2cn3ccccc3n2)c1)c1cc2cccc(O)c2oc1=O ; what EC50 value has been reported?
1.3

---

# MEASURED ON: Indoleamine 2,3-dioxygenase 1 (Mus musculus, UniProt P28776)
# Sequence (P28776 whole entry): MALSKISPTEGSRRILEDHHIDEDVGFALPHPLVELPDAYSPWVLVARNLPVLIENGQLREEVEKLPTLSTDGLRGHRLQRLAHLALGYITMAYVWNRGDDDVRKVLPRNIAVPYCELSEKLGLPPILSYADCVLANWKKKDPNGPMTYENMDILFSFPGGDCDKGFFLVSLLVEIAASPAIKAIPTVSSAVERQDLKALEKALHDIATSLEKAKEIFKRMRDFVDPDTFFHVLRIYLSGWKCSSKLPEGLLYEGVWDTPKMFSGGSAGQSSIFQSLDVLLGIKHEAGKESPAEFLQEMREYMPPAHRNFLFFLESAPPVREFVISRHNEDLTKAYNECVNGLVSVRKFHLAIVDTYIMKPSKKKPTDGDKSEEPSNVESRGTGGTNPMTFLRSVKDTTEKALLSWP
# ASSAY NAME: Positive allosteric modulation of recombinant mouse IDOL transfected in mouse P1.HTR cells assessed as increase in Kyn production incubated for 24 hrs
PROPERTY: pEC50
Quick note: pEC50 values are minus log10 of concentrations in mol/L.

Suppose we examine the molecule CC(=O)NCCc1c[nH]c2ccc(O)cc12 ; what pEC50 value has been reported?
4.71

Ref: ChEMBL document CHEMBL5375949
